- test system: Estrogen receptor (Homo sapiens)
- protocol notes: OT_ERa_GFPERaERE_0480: Odyssey Thera (OT) 8-hour HeLa Transcription Induction Assay for Estrogen Receptor (AID 2283381)
Calls of active or inactive are those of the source. The calls were made as follows: active = hit-call score of the fitted dose curve at least 0.9, where 1 is the maximum; inactive = score below 0.9.
property: outcome

Take a look at these entries with their results.
[
  {
    "compound": "O=c1[nH]c2ccc(S(=O)CCN3CCC(Cc4ccc(F)cc4)CC3)cc2o1 (configuration not stated)",
    "outcome": "inactive"
  },
  {
    "compound": "Cn1c(=O)cc(Oc2ccc(F)cc2F)c2cnc(NCC(C)(C)O)nc21",
    "outcome": "inactive"
  },
  {
    "compound": "CC/C(=C\\C(=N/O)C(N)=O)C(C)[N+](=O)[O-] (configuration not stated)",
    "outcome": "inactive"
  },
  {
    "compound": "CC(C)CCO",
    "outcome": "inactive"
  }
]

// lookup outcome | system=Estrogen receptor (Homo sapiens) | key= Cc1ccc(N)cc1O
inactive

// lookup outcome | system=Estrogen receptor (Homo sapiens) | key= O=c1n(CC2CO2)c(=O)n(CC2CO2)c(=O)n1CC1CO1 (configuration not stated)
inactive

// lookup outcome | system=Estrogen receptor (Homo sapiens) | key= COc1ccc(-n2nc(C(F)F)cc2-c2ccc(S(C)=O)cc2)cc1 (configuration not stated)
inactive

---

- Read-out: ATP-citrate lyase (ACLY), ACLY (gene 47)
- protocol notes: LTEA_HepaRG_ACLY: Life Technologies and Expression Analysis (LTEA) Assay for ATP-citrate lyase (ACLY) using HepaRG (AID 2283466)
- assay setup: mRNA level, 48 h; actives raise or lower the signal
Active and inactive are the calls of the source. Rule for the calls: active = hit-call score of the fitted dose curve at least 0.9, where 1 is the maximum; inactive = score below 0.9.
Pick from true (1) for active, false (0) for inactive when you respond.

Please state the recorded outcome for this compound: CCC(C)(C)C(=O)O[C@H]1C[C@@H](C)C=C2C=C[C@H](C)[C@H](CC[C@@H]3C[C@@H](O)CC(=O)O3)[C@H]21
true (1)

Please state the recorded outcome for this compound: C1N2CN3CN1CN(C2)C3
false (0)

Please state the recorded outcome for this compound: Cc1ccc(N)cc1O
false (0)

Please state the recorded outcome for this compound: O=C(O)CC(O)C(=O)O (configuration not stated)
false (0)

Please state the recorded outcome for this compound: NC(=O)NO
false (0)

Please state the recorded outcome for this compound: CC/C(=C\C(=N/O)C(N)=O)C(C)[N+](=O)[O-] (configuration not stated)
false (0)

Please state the recorded outcome for this compound: Nc1ccc(Nc2ccccc2)cc1
false (0)

---

- test system: Cellular tumor antigen p53 (Homo sapiens) (UniProt P04637)
- Sequence (P04637 whole entry, looked up): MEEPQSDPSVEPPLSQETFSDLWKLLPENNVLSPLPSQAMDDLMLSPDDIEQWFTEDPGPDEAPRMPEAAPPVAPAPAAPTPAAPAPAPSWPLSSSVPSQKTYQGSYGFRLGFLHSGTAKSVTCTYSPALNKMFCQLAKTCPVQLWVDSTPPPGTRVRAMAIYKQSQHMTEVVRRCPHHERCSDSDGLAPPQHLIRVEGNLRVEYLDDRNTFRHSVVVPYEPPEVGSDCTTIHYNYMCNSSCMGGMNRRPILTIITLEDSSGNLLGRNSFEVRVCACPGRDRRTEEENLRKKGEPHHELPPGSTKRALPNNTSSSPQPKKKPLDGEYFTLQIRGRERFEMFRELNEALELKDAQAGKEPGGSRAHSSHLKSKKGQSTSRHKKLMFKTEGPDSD
- protocol notes: TOX21_p53_BLA_p4_ratio: Tox21 HCT-116 p53 Agonism Beta-lactamase Assay, Ratio, Phase 4 (AID 2283601)
- Experimental: TOX21_p53_BLA_p4 is a cell-based, single-readout assay that uses HCT116, a human intestinal cell line, […] in a 1536-well plate.TOX21_p53_BLA_p4_ratio is an assay readout measuring reporter gene via receptor activity and designed using inducible reporter (beta lactamase induction) detected with GAL4 b-lactamase reporter gene. […] This assay endpoint, TOX21_p53_BLA_p4_ratio, was analyzed in the positive analysis fitting direction relative to DMSO as the negative control and baseline of activity. […]
Inconclusive results are not listed. The source made the active and inactive calls. How the source made its calls: active means hit-call score of the fitted dose curve at least 0.9, where 1 is the maximum; inconclusive means response in the unintended direction; inactive means score below 0.9.
Pick from active, inactive when you respond.

Please state the recorded outcome for this molecule: Oc1ccc2c(c1)-c1ccccc1C2
active

Please state the recorded outcome for this molecule: On1ccccc1=S
inactive

Please state the recorded outcome for this molecule: CC1=CC(=O)CC(C)(C)C1
inactive

Please state the recorded outcome for this molecule: CCOc1cccc(-n2cc(C(=O)N3CCN(c4cc(C(=O)O)c5ccccc5c4)CC3)nc2-c2ccc(C)cc2)c1
active

Please state the recorded outcome for this molecule: CC(C)c1cccc(C(C)C)c1N1C(=O)c2ccc(O)cc2C1=O
active

Please state the recorded outcome for this molecule: O=C(CCCCCCCCc1cccnc1)N1CCC(C=C(c2ccccc2)c2ccccc2)CC1
inactive

Please state the recorded outcome for this molecule: C=CC(=C)CCC=C(C)C
inactive

Please state the recorded outcome for this molecule: Cc1ccc(O)cc1
inactive

Please state the recorded outcome for this molecule: CC(C)=CCCC(C)=CC=O
inactive

Please state the recorded outcome for this molecule: C1=CCCC=CCCC=CCC1
inactive

Please state the recorded outcome for this molecule: CCCN(C1CCN(C(=O)C2CCNCC2)CC1)[C@@H]1CCc2ccc(OC)cc2C1
inactive

Please state the recorded outcome for this molecule: C1N2CN3CN1CN(C2)C3
inactive

Please state the recorded outcome for this molecule: O=C1OC(=O)C2C3C=CC(C3)C12 (stereo not drawn)
inactive

---

- Read-out: matrix metalloproteinase-10 (MMP10), MMP10 (gene 4319)
- protocol notes: LTEA_HepaRG_MMP10: Life Technologies and Expression Analysis (LTEA) Assay for matrix metalloproteinase-10 (MMP10) using HepaRG (AID 2283517)
- assay setup: mRNA level, 48 h; actives raise or lower the signal
The source made the active and inactive calls. The calls were made as follows: active = hit-call score of the fitted dose curve at least 0.9, where 1 is the maximum; inactive = score below 0.9.
Pick from active, inactive when you respond.

Please state the recorded outcome for this compound: Cc1[nH]cnc1C[C@H]1CCc2c(C)c3ccccc3n2C1=O
active

Please state the recorded outcome for this compound: COC(=O)c1ccccc1O
inactive

Please state the recorded outcome for this compound: C=CC(=C)CCC=C(C)C
inactive

Please state the recorded outcome for this compound: Cn1cnc([N+](=O)[O-])c1Sc1ncnc2nc[nH]c12
inactive

Please state the recorded outcome for this compound: COc1ccc(-n2nc(C(F)F)cc2-c2ccc(S(C)=O)cc2)cc1 (stereo not drawn)
inactive

Please state the recorded outcome for this compound: CC(C)CCCCCCCOC(=O)CCCCC(=O)OCCCCCCCC(C)C
inactive

Please state the recorded outcome for this compound: CC(C)(O)c1coc(S(=O)(=O)NC(=O)Nc2c3c(cc4c2CCC4)CCC3)c1
inactive

Please state the recorded outcome for this compound: O=C(OC[C@H]1O[C@@H](OC(=O)c2cc(O)c(O)c(OC(=O)c3cc(O)c(O)c(O)c3)c2)[C@H](OC(=O)c2cc(O)c(O)c(OC(=O)c3cc(O)c(O)c(O)c3)c2)[C@@H](OC(=O)c2cc(O)c(O)c(OC(=O)c3cc(O)c(O)c(O)c3)c2)[C@@H]1OC(=O)c1cc(O)c(O)c(OC(=O)c2cc(O)c(O)c(O)c2)c1)c1cc(O)c(O)c(OC(=O)c2cc(O)c(O)c(O)c2)c1
active

---

- Read-out: HGF (gene 3082)
- protocol notes: LTEA_HepaRG_HGF: Life Technologies and Expression Analysis (LTEA) Assay for Hepatocyte Growth Facto (HGF) using HepaRG (AID 2283505)
- assay setup: mRNA level, 48 h; actives raise or lower the signal
Active and inactive are the calls of the source. How the source made its calls: active means hit-call score of the fitted dose curve at least 0.9, where 1 is the maximum; inactive means score below 0.9.
Pick from YES for active, NO for inactive when you respond.

Please state the recorded outcome for this compound: O=C(OC[C@H]1O[C@@H](OC(=O)c2cc(O)c(O)c(OC(=O)c3cc(O)c(O)c(O)c3)c2)[C@H](OC(=O)c2cc(O)c(O)c(OC(=O)c3cc(O)c(O)c(O)c3)c2)[C@@H](OC(=O)c2cc(O)c(O)c(OC(=O)c3cc(O)c(O)c(O)c3)c2)[C@@H]1OC(=O)c1cc(O)c(O)c(OC(=O)c2cc(O)c(O)c(O)c2)c1)c1cc(O)c(O)c(OC(=O)c2cc(O)c(O)c(O)c2)c1
YES

Please state the recorded outcome for this compound: Cc1[nH]cnc1C[C@H]1CCc2c(C)c3ccccc3n2C1=O
YES

Please state the recorded outcome for this compound: CC(O)CN(CCN(CC(C)O)CC(C)O)CC(C)O (stereo not drawn)
NO

Please state the recorded outcome for this compound: CC(C)=CCCC(C)CCO (stereo not drawn)
NO

Please state the recorded outcome for this compound: Nc1ccc(Nc2ccccc2)cc1
NO

Please state the recorded outcome for this compound: CCCCC(CC)COC(=O)CCCCCCCCC(=O)OCC(CC)CCCC (stereo not drawn)
NO

Please state the recorded outcome for this compound: CC[C@H](C)C(=O)O[C@H]1C[C@@H](C)C=C2C=C[C@H](C)[C@H](CC[C@@H]3C[C@@H](O)CC(=O)O3)[C@H]21
NO

Please state the recorded outcome for this compound: CC(=O)OC[C@H]1O[C@@](COC(C)=O)(O[C@H]2O[C@H](COC(C)=O)[C@@H](OC(C)=O)[C@H](OC(C)=O)[C@H]2OC(C)=O)[C@@H](OC(C)=O)[C@@H]1OC(C)=O
NO

---

- Read-out: ABC Transporter (ABCB11), ABCB11 (gene 8647)
- protocol notes: LTEA_HepaRG_ABCB11: Life Technologies and Expression Analysis (LTEA) Assay for ABC Transporter (ABCB11) using HepaRG (AID 2283463)
- assay setup: mRNA level, 48 h; actives raise or lower the signal
- Description: LTEA_HepaRG is a cell based, multiplexed-readout assay that uses HepaRG, a human liver cell line, with measurements taken at 48 hours after chemical dosing on a 96-well plate.LTEA_HepaRG_ABCB11 is one of 102 assay component(s) measured in the LTEA HepaRG cell culture assay. It is a marker of Steatosis/NR mediated transport.Data from the assay component LTEA_HepaRG_ABCB11 was analyzed into 1 endpoint. […]
Active and inactive are the calls of the source. Rule for the calls: active = hit-call score of the fitted dose curve at least 0.9, where 1 is the maximum; inactive = score below 0.9.
property: AC50

[
  {
    "molecule": "CC1(C)C(=O)N(Br)C(=O)N1Br",
    "AC50": "inactive"
  },
  {
    "molecule": "CCNc1ccccc1",
    "AC50": "inactive"
  },
  {
    "molecule": "CCOCCO",
    "AC50": "inactive"
  },
  {
    "molecule": "C1N2CN3CN1CN(C2)C3",
    "AC50": "inactive"
  },
  {
    "molecule": "Nc1nc2ncc(CNc3ccc(C(=O)N[C@@H](CCC(=O)O)C(=O)O)cc3)nc2c(=O)[nH]1",
    "AC50": "inactive"
  },
  {
    "molecule": "Nc1ccc(Nc2ccccc2)cc1",
    "AC50": "69.2 µM (active)"
  }
]

Could you share which AC50 value was measured for CCOCCOCCOCCO ?
inactive

Could you share which AC50 value was measured for Cn1c(=O)cc(Oc2ccc(F)cc2F)c2cnc(NCC(C)(C)O)nc21 ?
12.7 µM (active)

Could you share which AC50 value was measured for O=C(CCCCCCCCc1cccnc1)N1CCC(C=C(c2ccccc2)c2ccccc2)CC1 ?
14.3 µM (active)
